For each entry below, report its IC50 value.
target: hAChE (AChE from human erythrocytes) (Homo sapiens, UniProt P22303); construct: AChE from human erythrocytes; purchased Sigma Aldrich; host or cells: human erythrocytes (tissue-derived enzyme); experiment: biochemical; conditions: mean ± SEM of three experiments; read-out: hAChE IC50 (nM) (n = 3)
Sequence (P22303 32-617 isoform P22303-2 limits assumed): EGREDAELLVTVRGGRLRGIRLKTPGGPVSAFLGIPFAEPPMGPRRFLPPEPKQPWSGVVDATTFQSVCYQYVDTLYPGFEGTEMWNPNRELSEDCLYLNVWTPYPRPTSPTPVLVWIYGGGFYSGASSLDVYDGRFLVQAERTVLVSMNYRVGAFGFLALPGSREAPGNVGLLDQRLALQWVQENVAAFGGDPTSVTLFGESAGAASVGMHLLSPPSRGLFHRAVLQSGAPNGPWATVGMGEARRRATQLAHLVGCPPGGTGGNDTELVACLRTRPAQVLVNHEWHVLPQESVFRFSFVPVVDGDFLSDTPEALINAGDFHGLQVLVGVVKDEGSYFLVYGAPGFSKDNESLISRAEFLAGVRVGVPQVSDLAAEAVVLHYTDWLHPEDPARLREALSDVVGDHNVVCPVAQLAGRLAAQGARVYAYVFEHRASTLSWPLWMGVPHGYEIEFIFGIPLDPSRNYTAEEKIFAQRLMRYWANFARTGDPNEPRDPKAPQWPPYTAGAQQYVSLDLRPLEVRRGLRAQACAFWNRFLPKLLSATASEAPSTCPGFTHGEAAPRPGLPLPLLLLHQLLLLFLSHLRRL
Please state the figure in nM; there is no need to write the unit.

**Query** State its IC50: COc1cc(N)c(Cl)cc1-c1nn(C)cc1CC1CCN(Cc2cccc(C)c2)CC1
**Result** 110

**Query** Name the recorded IC50 of the molecule listed here: COc1cc(NC(C)=O)c(Cl)cc1C(=O)CCC1CCN(CC2CCCCC2)CC1
**Result** 34

---

target: human 5-HT6 receptors (Homo sapiens); construct: purchased Perkin Elmer RBHS6M; host or cells: HEK-293 cells, transient expression; test: h5-HT6R radioligand displacement ([3H]-LSD); assay type: binding; conditions: 10^−6 M; 2.5 nM [3H]-LSD
Sequence (P50406 whole entry): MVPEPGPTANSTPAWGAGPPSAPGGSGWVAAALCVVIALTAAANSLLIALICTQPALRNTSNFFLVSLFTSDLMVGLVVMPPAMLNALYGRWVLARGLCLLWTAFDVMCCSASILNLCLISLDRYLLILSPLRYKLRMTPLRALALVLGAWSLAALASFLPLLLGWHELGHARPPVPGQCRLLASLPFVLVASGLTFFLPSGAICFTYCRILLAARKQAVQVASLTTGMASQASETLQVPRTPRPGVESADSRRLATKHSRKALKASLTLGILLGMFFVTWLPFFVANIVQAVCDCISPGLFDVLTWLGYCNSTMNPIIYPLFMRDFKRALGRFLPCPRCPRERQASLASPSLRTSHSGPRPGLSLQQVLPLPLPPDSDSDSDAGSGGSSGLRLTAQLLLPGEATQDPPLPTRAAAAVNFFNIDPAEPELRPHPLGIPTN
Assignment: determine reported inhibition at 1 µM for the given molecules.
Hey, just the number and the unit after it is fine.

**Query** Supply recorded inhibition at 1 µM for Cc1cccc(CN2CCC(COc3cc(-c4ccccc4)nn3C)CC2)c1 [12c] here.
**Result** 6%

**Query** Tell me inhibition at 1 µM reported for COc1cc(NC(C)=O)c(Cl)cc1-c1cc(OCC2CCN(Cc3cccc(C)c3)CC2)n(C)n1 [12b]
**Result** 0%

**Query** Please supply the value of reported inhibition at 1 µM for the item Fc1ccc2c(CCNCc3cccc(OCC(F)(F)C(F)F)c3)c[nH]c2c1 [Idalopirdine, idalopirdine, reference compound]
**Result** 106%

**Query** Give reported inhibition at 1 µM value for COc1cc(N)c(Cl)cc1-c1nn(C)cc1CC1CCN(Cc2cccc(C)c2)CC1
**Result** 68%

**Query** Give the measured inhibition at 1 µM for COc1ccc(-c2cc(OCC3CCN(Cc4cccc(C)c4)CC3)n(C)n2)cc1OC [12d]
**Result** 9%

**Query** Supply measured inhibition at 1 µM of COc1cc(NC(C)=O)c(Cl)cc1-c1nn(C)cc1CC1CCN(CC2CCCCC2)CC1 in your reply.
**Result** 0%

**Query** Please report the measured inhibition at 1 µM for COc1cc(N)c(Cl)cc1C(=O)CCC1CCN(CC2CCCCC2)CC1 [Donecopride, donecopride, reference compound]
**Result** 30%

**Query** In one line, give reported inhibition at 1 µM of the entry COc1cc(N)c(Cl)cc1-c1nn(C)cc1CC1CCN(CC2CCCCC2)CC1 .
**Result** 2%

**Query** Identify measured inhibition at 1 µM associated with COc1cc(N)c(Cl)cc1C(=O)CCC1CCN(Cc2cccc(C)c2)CC1 [MR33372, reference compound]
**Result** 80%

---

target: hAChE (AChE from human erythrocytes) (Homo sapiens); construct: AChE from human erythrocytes; purchased Sigma Aldrich; host or cells: human erythrocytes (tissue-derived enzyme); assay: biochemical; settings: read-out: hAChE % Inhibition at 10^−6 M
ASSAY READOUT: inhibition at 1 µM
Put down the number, then write its unit next to it.

**Query** For the compound COc1cc(NC(C)=O)c(Cl)cc1-c1cc(OCC2CCN(Cc3cccc(C)c3)CC2)n(C)n1 [12b] , report inhibition at 1 µM.
**Result** 15%

**Query** Please give the documented inhibition at 1 µM of Cc1cccc(CN2CCC(COc3cc(-c4ccccc4)nn3C)CC2)c1 [12c]
**Result** 15%

**Query** Retrieve inhibition at 1 µM measured for COc1ccc(-c2cc(OCC3CCN(Cc4cccc(C)c4)CC3)n(C)n2)cc1OC [12d] and print it.
**Result** 6%

**Query** Retrieve inhibition at 1 µM measured for COc1cc(NC(C)=O)c(Cl)cc1-c1nn(C)cc1CC1CCN(CC2CCCCC2)CC1 and print it.
**Result** 31%

**Query** Respond only with inhibition at 1 µM recorded for COc1cc(NC(C)=O)c(Cl)cc1C(=O)CCC1CCN(CC2CCCCC2)CC1
**Result** 98%

**Query** Give recorded inhibition at 1 µM. COc1cc(N)c(Cl)cc1C(=O)CCC1CCN(CC2CCCCC2)CC1 [Donecopride, donecopride, reference compound]
**Result** 96%

**Query** Read off the recorded inhibition at 1 µM for COc1cc(N)c(Cl)cc1-c1nn(C)cc1CC1CCN(Cc2cccc(C)c2)CC1
**Result** 76%

**Query** Give the reported inhibition at 1 µM for this compound. COc1cc(N)c(Cl)cc1-c1nn(C)cc1CC1CCN(CC2CCCCC2)CC1
**Result** 34%

Where do the numbers come from? From paper PMC8123621.
